Tested on: HCC1569
Test: GRmax, 72 h; higher = less effect;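 also: breast cell lines in 384-well plates, nine doses across a 10^4 range, Dye Drop imaging of viable cells vs DMSO and time-zero plates, GR 0 means no net growth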
Each item that follows carries a reported GRmax, 72 h.
property.label: GRmax, 72 h (GR)

molecule="CN(C)CC[C@H](CSc1ccccc1)Nc1ccc(S(=O)(=O)NC(=O)c2ccc(N3CCN(Cc4ccccc4-c4ccc(Cl)cc4)CC3)cc2)cc1[N+](=O)[O-] [ABT-737] (max 10 µM)" observed_value=-0.406
molecule="CC(=O)O[C@H]1C(=O)[C@@]2(C)[C@H]([C@H](OC(=O)c3ccccc3)[C@]3(O)C[C@H](OC(=O)[C@H](O)[C@@H](NC(=O)c4ccccc4)c4ccccc4)C(C)=C1C3(C)C)[C@]1(OC(C)=O)CO[C@@H]1C[C@@H]2O [Paclitaxel] (max 1 µM)" observed_value=0.0183
molecule="CN(C)C(=O)c1cc2cnc(Nc3ccc(N4CCNCC4)cn3)nc2n1C1CCCC1 [LEE011/Ribociclib] (max 10 µM)" observed_value=0.897

###

Test system: UACC893
Test: area over the GR curve, 72 h; higher = more effect;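 also: Dye Drop or Deep Dye Drop imaging of viable cells in 384-well plates (Hoechst nuclei, LIVE/DEAD dye), nine half-log doses, GR normalized to DMSO controls and time-zero plates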
property.label: area over the GR curve (GR)

compound="CCc1cnn2c(NCc3ccc[n+]([O-])c3)cc(N3CCCC[C@H]3CCO)nc12 (max 1 µM)" observed_value=0.67
compound="Nc1ccc(-c2ccc3ncc4ccc(=O)n(-c5cccc(C(F)(F)F)c5)c4c3c2)cn1 [Torin2] (max 1 µM)" observed_value=0.698
compound="O=C1NC(=O)[C@@H](c2cn3c4c(cccc24)CCC3)[C@@H]1c1c[nH]c2ccccc12 [Tivantinib/ARQ197] (max 10 µM)" observed_value=0.405
compound=COc1cc(N2CCN(C)CC2)ccc1Nc1ncc2c(n1)N(C)c1ccccc1C(=O)N2CC(F)(F)F observed_value=-0.0085
compound="C=CCn1c(=O)c2cnc(Nc3ccc(N4CCN(C)CC4)cc3)nc2n1-c1cccc(C(C)(C)O)n1 [AZD1775] (max 10 µM)" observed_value=0.488
compound="CCOc1cc2ncc(C#N)c(Nc3ccc(OCc4ccccn4)c(Cl)c3)c2cc1NC(=O)/C=C/CN(C)C [Neratinib/HKI272] (max 3.162 µM)" observed_value=1.17
compound="Cc1cc(C(C)Nc2ccccc2)c2nc(N3CCOCC3)cc(=O)n2c1 (centres undefined) [TGX221] (max 10 µM)" observed_value=-0.111
compound="CC(=O)Nc1cccc(-n2c(=O)n(C3CC3)c(=O)c3c(Nc4ccc(I)cc4F)n(C)c(=O)c(C)c32)c1 (max 1 µM)" observed_value=0.434
compound="CN(C)C/C=C/C(=O)Nc1ccc(C(=O)Nc2cccc(Nc3cc(-c4c[nH]c5ccccc45)ncn3)c2)cc1 [THZ-P1-2] (max 10 µM)" observed_value=0.573
compound="CCN1CCN(Cc2ccc(Nc3ncc(F)c(-c4cc(F)c5nc(C)n(C(C)C)c5c4)n3)nc2)CC1 (max 10 µM)" observed_value=0.657
compound=COc1ccc2c(c1)[C@]1(C[C@H]1c1ccc3c(/C=C/c4ccc(CN5C[C@@H](C)O[C@@H](C)C5)cc4)n[nH]c3c1)C(=O)N2 observed_value=0.416
compound="CO[C@H]1C[C@@H]2CC[C@@H](C)[C@@](O)(O2)C(=O)C(=O)N2CCCC[C@H]2C(=O)O[C@H]([C@H](C)C[C@@H]2CC[C@@H](OCCO)[C@H](OC)C2)CC(=O)[C@H](C)/C=C(\\C)[C@@H](O)[C@@H](OC)C(=O)[C@H](C)C[C@H](C)/C=C/C=C/C=C/1C [Everolimus] (max 10 µM)" observed_value=0.714
compound="NC1(C(=O)N[C@@H](CCO)c2ccc(Cl)cc2)CCN(c2nc[nH]c3nccc2-3)CC1 [AZD5363] (max 10 µM)" observed_value=0.769
compound=CCC(=O)Nc1ccc(C(=O)Nc2ccc(Nc3ncc4c(n3)N(C)c3ccc(C)cc3C(=O)N4C)cc2)cc1 observed_value=0.869
